Measured endpoint: melting point

INSERT INTO results (molecule, measured_endpoint, result_value) VALUES
  ('CCCc1nn(C)c2c(=O)[nH]c(-c3cc(C(=O)O)ccc3OCC)nc12', 'melting point', '285 to 288 °C');

Need melting point of CC(C)(C)NC(=O)c1ncccc1CCc1cccc(Cl)c1 , thanks. 45 to 46 °C

Please give the measured melting point for this molecule: CCOc1cc(O)nc(N(C)C)n1 194 to 195 °C

Recorded melting point of Cc1c(C(=O)O)oc2cc(O)c(Cl)cc12 , please. 279 to 280 °C

Which measured melting point value corresponds to CC(C)(C)c1ccc(C(O)CCCCC2CCCCC2)cc1C(C(N)=O)C1c2ccccc2Oc2ccccc21 (stereo not given) ? 121 to 122 °C

# get_value(readout='melting point', item= O=C(CCl)c1cccn1C(c1ccccc1)c1ccccc1F (stereo not given) ) 86 to 91 °C

----------
Parameter melting point: see the listing below.

INSERT INTO measurements (compound, measured_endpoint, result_value) VALUES
  ('CC1(C)OC(=O)Nc2ccc(-c3cc(F)cc(Cl)c3)cc21', 'melting point', '193 to 194 °C'),
  ('CCc1cnc(CC(C#Cc2ccccc2)c2ccc(OC)c(OC3CCCC3)c2)o1 (racemic)', 'melting point', '94 to 96 °C'),
  ('CC1(C)c2cc(C#N)ccc2OC1N=C=S (stereo not drawn)', 'melting point', '52 °C'),
  ('Oc1ccc2c(c1)Cc1c-2cc2ccc(O)cc2c1C=C(F)F', 'melting point', '211 to 212 °C'),
  ('O=C(Nc1cc2ncc(CN3CCCC3)cc2cc1F)c1ccc(-c2ccccc2)cc1F', 'melting point', '163 to 164 °C'),
  ('CN(C)c1nc(Cl)nc(N2CCOCC2)n1', 'melting point', '96 to 97 °C'),
  ('Nc1c2c(nc3ccccc13)CCCC2N1CCC(c2ccccc2)CC1 (stereo not drawn)', 'melting point', '189 to 190 °C'),
  ('CC(=O)NCc1ccc(C(C)(C)C(=O)O)cc1', 'melting point', '166 to 169 °C');

Give the measured melting point of Nc1ccc(CCC(=O)c2ccccc2)cc1 . 76 to 78 °C

Returns the measured melting point for the input compound. Input: COc1ccc(CCc2oc3ccc(Br)cc3c2CO)cc1 65 to 75 °C

Which melting point value is on record for O=c1[nH]c2ccccc2n1CCCCN1CCC(c2c[nH]c3ccccc23)CC1 ? 196 °C

Return reported melting point; argument: FC(F)(F)c1ccc(-c2ccc(CCl)cn2)cc1 73 °C

Record request: melting point value, item CCOC(=O)Cc1c(C)n(Cc2cccc(C(F)(F)F)c2)c2ccc(OC)cc12 95 to 97 °C

----------
Measured endpoint: melting point

# input compound: O=C(C=Cc1cc(OC(=O)c2ccccc2)c(OC(=O)c2ccccc2)c([N+](=O)[O-])c1)c1ccccc1 ; wanted: its melting point 206 to 210 °C

Which measured melting point value corresponds to Cc1nc(N)c2nc(C)n(CCOCc3ccccc3)c2c1C ? 137 to 138 °C

GET /values?readout=melting point&item= COc1ccc(CC2NC(=O)NC2=O)cc1 (stereo unspecified) 174 °C

Any idea what its melting point is? The compound is Cc1noc(C)c1CN1C(=O)C2(COc3cc4c(cc32)OCO4)c2ccccc21 (stereo unspecified) 165 to 167 °C

I would be grateful if you could share the reported melting point for CCCCCCCCCCCCCCOC(=O)c1ccc(OC)c(N)c1 . 54 to 56 °C

Please report the recorded melting point for CC(C)(O)COc1ccc(/C=C/C(=O)O)c(Oc2ncc(C(F)(F)F)cc2Cl)c1 . 126 to 128 °C
